Data provenance: paper PMC7413254

target: PfCRT^Dd2 (Plasmodium falciparum, UniProt Q9N623, A220S/I356T/K76T/M74I/N326S/N75E/Q271E/R371I); assay: cell-based; settings: Trans-inhibition IC50 of [3H]VF-6 transport, PfCRTDd2, drug on opposite side to [3H]VF-6; mean ± SEM, n = 5; SEM
Sequence (Q9N623 whole entry A220S/I356T/K76T/M74I/N326S/N75E/Q271E/R371I): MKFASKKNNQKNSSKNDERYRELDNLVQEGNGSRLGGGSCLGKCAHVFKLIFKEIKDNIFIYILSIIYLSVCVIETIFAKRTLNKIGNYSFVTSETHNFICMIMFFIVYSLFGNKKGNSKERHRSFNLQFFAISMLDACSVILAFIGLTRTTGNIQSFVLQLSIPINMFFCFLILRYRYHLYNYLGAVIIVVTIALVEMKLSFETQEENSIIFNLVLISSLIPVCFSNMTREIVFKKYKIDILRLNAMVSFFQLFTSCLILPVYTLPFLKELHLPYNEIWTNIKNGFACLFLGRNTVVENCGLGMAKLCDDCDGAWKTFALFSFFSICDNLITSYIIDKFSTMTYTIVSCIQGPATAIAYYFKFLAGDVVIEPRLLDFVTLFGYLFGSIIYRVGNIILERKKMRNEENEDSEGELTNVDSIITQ
Catalogue of molecules with associated pIC50
Field pIC50 (float): negative decimal logarithm of the concentration in molar.

CCN(CC)CCCC(C)Nc1ccnc2cc(Cl)ccc12 (centres unmarked) [CQ, chloroquine, reference compound]	4.27

Query molecule follows.
Entry under review: CN(C)CCC(c1ccc(Cl)cc1)c1ccccn1 (centres unmarked) [CP, chlorpheniramine, reference compound] . Reported pIC50? 5.06

----------
Below: a set of entries, each annotated with reported PfCRT-mediated [3H]CQ transport, trans-stimulation (% PfCRTEcu1110 control).
biological target: PfCRT^Ecu1110 (Plasmodium falciparum, UniProt Q9N623, A220S/I356L/K76T/N326D); test: cell-based; type: cell-based; conditions: [test solute]i = 45 mM (intracellular; 30 mM for some solutes due to solubility); PfCRTEcu1110 oocytes; normalised to oocyte type control
Sequence (Q9N623 whole entry A220S/I356L/K76T/N326D): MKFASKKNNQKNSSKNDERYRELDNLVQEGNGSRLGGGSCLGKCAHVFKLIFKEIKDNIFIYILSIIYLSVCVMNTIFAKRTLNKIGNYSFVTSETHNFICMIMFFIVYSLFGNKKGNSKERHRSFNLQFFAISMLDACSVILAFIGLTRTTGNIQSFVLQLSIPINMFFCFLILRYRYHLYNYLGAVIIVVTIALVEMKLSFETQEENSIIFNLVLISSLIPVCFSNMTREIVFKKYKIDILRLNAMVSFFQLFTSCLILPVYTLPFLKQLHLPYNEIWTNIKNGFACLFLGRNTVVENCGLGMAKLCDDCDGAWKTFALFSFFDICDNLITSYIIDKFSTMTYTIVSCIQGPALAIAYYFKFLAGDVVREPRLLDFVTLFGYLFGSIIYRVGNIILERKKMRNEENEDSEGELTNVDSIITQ

Some substances with recorded PfCRT-mediated [3H]CQ transport, trans-stimulation (% PfCRTEcu1110 control):
FSDGLA [FA-6]	96 ± 4.7 % PfCRTEcu1110 control
HVDPENFRL [HL-9]	96 ± 2.1 % PfCRTEcu1110 control
HVDPEN [HN-6]	136 ± 3.2 % PfCRTEcu1110 control
SHCLLVT [ST-7]	136 ± 4.3 % PfCRTEcu1110 control
VDPVNFK [VK-7]	138 ± 4.1 % PfCRTEcu1110 control
KEFTPPVQA [KA-9]	98 ± 2.0 % PfCRTEcu1110 control
HVDDMP [HP-6]	139 ± 3.4 % PfCRTEcu1110 control
DLHAHKLR [DR-8]	139 ± 3.7 % PfCRTEcu1110 control

Name the recorded PfCRT-mediated [3H]CQ transport, trans-stimulation (% PfCRTEcu1110 control) for EFTPPVQA [EA-8] . 136 ± 4.1 % PfCRTEcu1110 control

Moving on to the next substance: PHFDLS [PS-6] 138 ± 4.6 % PfCRTEcu1110 control

Moving on to DPENFR [DR-6] 127 ± 4.2 % PfCRTEcu1110 control

Would you mind doing VLSPAD [VD-6] as well? 98 ± 3.3 % PfCRTEcu1110 control

One more substance: FPHFDLS [FS-7] 98 ± 4.3 % PfCRTEcu1110 control

----------
target: PfCRT^Dd2 in C4^Dd2 parasites (Plasmodium falciparum, UniProt Q8IBZ9, A220S/I356T/K76T/M74I/N326S/N75E/Q271E/R371I); construct: PfCRT also functions as a peptide transporter within its native environment of the DV membrane; expressed in transfected cells; host or cells: P. falciparum pfcrt transfectant line C4^Dd2 (saponin-isolated trophozoites); assay: P. falciparum H+-efflux assay (rate of DV alkalinisation after concanamycin A); format: cell-based; conditions: C4Dd2; test solute 10 μM
Sequence (Q8IBZ9 whole entry M74I/N75E/K76T/A220S/Q271E/N326S/I356T/R371I): as the sequence (Q9N623 whole entry A220S/I356T/K76T/M74I/N326S/N75E/Q271E/R371I) above
measure-name: Effect on rate of DV alkalinisation / H+ leak (in words)

CC(C)c1nc(CN(C)C(=O)N[C@H](C(=O)N[C@@H](Cc2ccccc2)C[C@H](O)[C@H](Cc2ccccc2)NC(=O)OCc2cncs2)C(C)C)cs1	without effect
Cc1cccc(C)c1OCC(=O)N[C@@H](Cc1ccccc1)[C@@H](O)C[C@H](Cc1ccccc1)NC(=O)[C@H](C(C)C)N1CCCNC1=O	without effect
N[C@@H](Cc1c[nH]cn1)C(=O)O	without effect
